- test: Biodistribution of 18F-labeled SST2 ligands in AR42J tumor-bearing mice
- Type: in vivo
- experimental_conditions: female, CD1 nu/nu, mouse, heart, iv, total radioactivity, 1 h post injection, tail vein; read-out: Heart % ID/g ± SD
We use 0.3 %ID/g as the dividing line for tissue uptake at 1 h: on or above the line is met, below is not met.

compound | assigned_label
C[C@@H](O)[C@H](NC(=O)C1CSSCC(NC(=O)C(Cc2ccccc2)NC(=O)CNC(=O)CNC(=O)CNC(=O)C(CC(=O)O)NC(=O)[C@@H](CC(=O)O)NC(=O)C(CCCCN)NC(=O)[C@@H](CNC(=O)C[N+](C)(C)Cc2ccc([Si](F)(C(C)(C)C)C(C)(C)C)cc2)NC(=O)CN2CCN(CC(=O)O)CCN(CC(=O)O)CCN(CC(=O)O)CC2)C(=O)N[C@@H](Cc2ccc(O)cc2)C(=O)NC(Cc2c[nH]c3ccccc23)C(=O)N[C@@H](CCCCN)C(=O)N[C@@H]([C@@H](C)O)C(=O)N1)C(=O)O (some centres unmarked) (natGa complex, metal not drawn) [[Ga]45] | not met
C[C@@H](O)[C@H](NC(=O)C1CSSCC(NC(=O)C(Cc2ccccc2)NC(=O)CNC(=O)CNC(=O)[C@@H](CC(=O)O)NC(=O)C(CC(=O)O)NC(=O)[C@@H](CNC(=O)CN2CCN(CC(=O)O)CCN(CC(=O)O)CCN(CC(=O)O)CC2)NC(=O)C[N+](C)(C)Cc2ccc([Si](F)(C(C)(C)C)C(C)(C)C)cc2)C(=O)N[C@@H](Cc2ccc(O)cc2)C(=O)NC(Cc2c[nH]c3ccccc23)C(=O)N[C@@H](CCCCN)C(=O)N[C@@H]([C@@H](C)O)C(=O)N1)C(=O)O (some centres unmarked) (natGa complex, metal not drawn) [[Ga]24] | met
C[C@@H](O)[C@H](NC(=O)C1CSSCC(NC(=O)C(Cc2ccccc2)NC(=O)CNC(=O)CNC(=O)[C@@H](CC(=O)O)NC(=O)C(CC(=O)O)NC(=O)[C@@H](CNC(=O)CN2CCN(CC(=O)O)CCN(CC(=O)O)CCN(CC(=O)O)CC2)NC(=O)C(CN)NC(=O)c2ccc([Si](F)(C(C)(C)C)C(C)(C)C)cc2)C(=O)N[C@@H](Cc2ccc(O)cc2)C(=O)NC(Cc2c[nH]c3ccccc23)C(=O)N[C@@H](CCCCN)C(=O)N[C@@H]([C@@H](C)O)C(=O)N1)C(=O)O (some centres unmarked) (natGa complex, metal not drawn) [[Ga]19] | met
C[C@@H](O)[C@H](NC(=O)C1CSSCC(NC(=O)C(Cc2ccccc2)NC(=O)CNC(=O)CNC(=O)CNC(=O)C(CC(=O)O)NC(=O)[C@@H](CC(=O)O)NC(=O)C(CNC(=O)CN2CCN(CC(=O)O)CCN(CC(=O)O)CCN(CC(=O)O)CC2)NC(=O)C[N+](C)(C)Cc2ccc([Si](F)(C(C)(C)C)C(C)(C)C)cc2)C(=O)N[C@@H](Cc2ccc(O)cc2)C(=O)NC(Cc2c[nH]c3ccccc23)C(=O)N[C@@H](CCCCN)C(=O)N[C@@H]([C@@H](C)O)C(=O)N1)C(=O)O (some centres unmarked) (natGa complex, metal not drawn) [[Ga]50] | not met

* * *

- test: Biodistribution of 18F-labeled SST2 ligands in AR42J tumor-bearing mice
- Assay type: in vivo
- experimental_conditions: female, CD1 nu/nu, mouse, spleen, iv, total radioactivity, Blocking study, 1 h post injection; read-out: Spleen % ID/g ± SD
reported_metric: tissue uptake at 1 h (%ID/g)

compound | unit_name | endpoint_result
C[C@@H](O)[C@H](NC(=O)C1CSSCC(NC(=O)C(Cc2ccccc2)NC(=O)CNC(=O)CNC(=O)[C@@H](CC(=O)O)NC(=O)C(CC(=O)O)NC(=O)[C@@H](CNC(=O)CN2CCN(CC(=O)O)CCN(CC(=O)O)CCN(CC(=O)O)CC2)NC(=O)C[N+](C)(C)Cc2ccc([Si](F)(C(C)(C)C)C(C)(C)C)cc2)C(=O)N[C@@H](Cc2ccc(O)cc2)C(=O)NC(Cc2c[nH]c3ccccc23)C(=O)N[C@@H](CCCCN)C(=O)N[C@@H]([C@@H](C)O)C(=O)N1)C(=O)O (stereo partly shown) (natGa complex, metal not drawn) [[Ga]24] | %ID/g | 0.33

* * *

Recorded pIC50 values (SST2 (Homo sapiens)) are given below.
pIC50: −log10 of the molar value.
reported_metric: pIC50

compound | reported_metric | endpoint_result
C[C@@H](O)[C@H](NC(=O)C1CSSCC(NC(=O)C(Cc2ccccc2)NC(=O)CNC(=O)CNC(=O)CNC(=O)C(CC(=O)O)NC(=O)[C@@H](CC(=O)O)NC(=O)C(CNC(=O)CN2CCN(CC(=O)O)CCN(CC(=O)O)CCN(CC(=O)O)CC2)NC(=O)CNC(=O)C[N+](C)(C)Cc2ccc([Si](F)(C(C)(C)C)C(C)(C)C)cc2)C(=O)N[C@@H](Cc2ccc(O)cc2)C(=O)NC(Cc2c[nH]c3ccccc23)C(=O)N[C@@H](CCCCN)C(=O)N[C@@H]([C@@H](C)O)C(=O)N1)C(=O)O (some centres unmarked) (natGa complex, metal not drawn) [[Ga]60] | pIC50 | 8.38
C[C@@H](O)[C@H](NC(=O)C1CSSCC(NC(=O)C(Cc2ccccc2)NC(=O)CNC(=O)CNC(=O)CNC(=O)C(CC(=O)O)NC(=O)[C@@H](CC(=O)O)NC(=O)C(CNC(=O)CN2CCN(CC(=O)O)CCN(CC(=O)O)CCN(CC(=O)O)CC2)NC(=O)[C@@H](CN)NC(=O)CNC(=O)CNC(=O)C[N+](C)(C)Cc2ccc([Si](F)(C(C)(C)C)C(C)(C)C)cc2)C(=O)N[C@@H](Cc2ccc(O)cc2)C(=O)NC(Cc2c[nH]c3ccccc23)C(=O)N[C@@H](CCCCN)C(=O)N[C@@H]([C@@H](C)O)C(=O)N1)C(=O)O (some centres unmarked) (natLu complex, metal not drawn) [[Lu]53] | pIC50 | 8.47

* * *

- test: Biodistribution of 18F-labeled SST2 ligands in AR42J tumor-bearing mice
- Format: in vivo
- experimental_conditions: female, CD1 nu/nu, mouse, intestine, iv, total radioactivity, 1 h post injection, tail vein; read-out: Intestine % ID/g ± SD
reported_metric: tissue uptake at 1 h (%ID/g)

compound | reported_metric | endpoint_result
C[C@@H](O)[C@H](NC(=O)C1CSSCC(NC(=O)C(Cc2ccccc2)NC(=O)CNC(=O)CNC(=O)CNC(=O)C(CC(=O)O)NC(=O)[C@@H](CC(=O)O)NC(=O)C(CCCNC(N)=O)NC(=O)[C@@H](CNC(=O)C[N+](C)(C)Cc2ccc([Si](F)(C(C)(C)C)C(C)(C)C)cc2)NC(=O)CN2CCN(CC(=O)O)CCN(CC(=O)O)CCN(CC(=O)O)CC2)C(=O)N[C@@H](Cc2ccc(O)cc2)C(=O)NC(Cc2c[nH]c3ccccc23)C(=O)N[C@@H](CCCCN)C(=O)N[C@@H]([C@@H](C)O)C(=O)N1)C(=O)O (some centres unmarked) (natGa complex, metal not drawn) [[Ga]46] | tissue uptake at 1 h | 1.43
C[C@@H](O)[C@H](NC(=O)C1CSSCC(NC(=O)C(Cc2ccccc2)NC(=O)CNC(=O)CNC(=O)CNC(=O)C(CC(=O)O)NC(=O)[C@@H](CC(=O)O)NC(=O)C(CNC(=O)CN2CCN(CC(=O)O)CCN(CC(=O)O)CCN(CC(=O)O)CC2)NC(=O)C[N+](C)(C)Cc2ccc([Si](F)(C(C)(C)C)C(C)(C)C)cc2)C(=O)N[C@@H](Cc2ccc(O)cc2)C(=O)NC(Cc2c[nH]c3ccccc23)C(=O)N[C@@H](CCCCN)C(=O)N[C@@H]([C@@H](C)O)C(=O)N1)C(=O)O (some centres unmarked) (natGa complex, metal not drawn) [[Ga]50] | tissue uptake at 1 h | 1.84

* * *

- system_tested: HSA (Homo sapiens)
- Sequence (P02768 25-609): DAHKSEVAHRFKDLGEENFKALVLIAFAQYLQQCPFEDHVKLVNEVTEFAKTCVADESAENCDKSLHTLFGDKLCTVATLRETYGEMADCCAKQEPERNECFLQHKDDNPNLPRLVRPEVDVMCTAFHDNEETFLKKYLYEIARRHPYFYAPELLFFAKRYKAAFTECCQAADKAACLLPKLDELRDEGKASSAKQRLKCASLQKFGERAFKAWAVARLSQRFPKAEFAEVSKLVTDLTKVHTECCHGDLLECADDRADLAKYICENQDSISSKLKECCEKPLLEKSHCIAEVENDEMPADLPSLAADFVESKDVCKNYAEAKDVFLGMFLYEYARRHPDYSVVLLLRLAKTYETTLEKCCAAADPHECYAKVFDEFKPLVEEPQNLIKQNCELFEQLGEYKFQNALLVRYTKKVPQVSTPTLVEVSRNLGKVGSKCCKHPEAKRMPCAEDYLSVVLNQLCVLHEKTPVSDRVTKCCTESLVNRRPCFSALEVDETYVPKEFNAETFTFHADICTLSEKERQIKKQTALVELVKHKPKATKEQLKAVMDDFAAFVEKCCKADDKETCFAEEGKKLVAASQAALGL
- test: HSA binding by RIAC method (gel filtration, apparent molecular weight)
- Format: in vitro ADME
- experimental_conditions: HSA binding as apparent molecular weight, 700 μM HSA in PBS mobile phase
Quick reference for HSA among some compounds

compound | HSA / kDa
C[C@@H](O)[C@H](NC(=O)C1CSSCC(NC(=O)C(Cc2ccccc2)NC(=O)CNC(=O)C(CC(=O)O)NC(=O)[C@@H](CC(=O)O)NC(=O)C(CNC(=O)CN2CCN(CC(=O)O)CCN(CC(=O)O)CCN(CC(=O)O)CC2)NC(=O)[C@@H](CN)NC(=O)c2ccc([Si](F)(C(C)(C)C)C(C)(C)C)cc2)C(=O)N[C@@H](Cc2ccc(O)cc2)C(=O)NC(Cc2c[nH]c3ccccc23)C(=O)N[C@@H](CCCCN)C(=O)N[C@@H]([C@@H](C)O)C(=O)N1)C(=O)O (some centres unmarked) (natGa complex, metal not drawn) [[Ga]39] | 24.96
C[C@@H](O)[C@H](NC(=O)C1CSSCC(NC(=O)C(Cc2ccccc2)NC(=O)CNC(=O)CNC(=O)CNC(=O)C(CC(=O)O)NC(=O)[C@@H](CC(=O)O)NC(=O)C(CNC(=O)CN2CCN(CC(=O)O)CCN(CC(=O)O)CCN(CC(=O)O)CC2)NC(=O)[C@@H](CN)NC(=O)C[N+](C)(C)Cc2ccc([Si](F)(C(C)(C)C)C(C)(C)C)cc2)C(=O)N[C@@H](Cc2ccc(O)cc2)C(=O)NC(Cc2c[nH]c3ccccc23)C(=O)N[C@@H](CCCCN)C(=O)N[C@@H]([C@@H](C)O)C(=O)N1)C(=O)O (some centres unmarked) [[Ga]51] | 8.71
C[C@@H](O)[C@H](NC(=O)C1CSSCC(NC(=O)C(Cc2ccccc2)NC(=O)CNC(=O)CNC(=O)CNC(=O)C(CC(=O)O)NC(=O)[C@@H](CC(=O)O)NC(=O)C(CNC(=O)C[N+](C)(C)Cc2ccc([Si](F)(C(C)(C)C)C(C)(C)C)cc2)NC(=O)CN2CCN(CC(=O)O)CCN(CC(=O)O)CCN(CC(=O)O)CC2)C(=O)N[C@@H](Cc2ccc(O)cc2)C(=O)NC(Cc2c[nH]c3ccccc23)C(=O)N[C@@H](CCCCN)C(=O)N[C@@H]([C@@H](C)O)C(=O)N1)C(=O)O (some centres unmarked) [[Ga]44] | 6.99
C[C@@H](O)[C@H](NC(=O)C1CSSCC(NC(=O)C(Cc2ccccc2)NC(=O)CNC(=O)CNC(=O)CNC(=O)C(CC(=O)O)NC(=O)[C@@H](CC(=O)O)NC(=O)C(CNC(=O)CN2CCN(CC(=O)O)CCN(CC(=O)O)CCN(CC(=O)O)CC2)NC(=O)C[N+](C)(C)Cc2ccc([Si](F)(C(C)(C)C)C(C)(C)C)cc2)C(=O)N[C@@H](Cc2ccc(O)cc2)C(=O)NC(Cc2c[nH]c3ccccc23)C(=O)N[C@@H](CCCCN)C(=O)N[C@@H]([C@@H](C)O)C(=O)N1)C(=O)O (some centres unmarked) [[Lu]50] | 8.17
C[C@@H](O)[C@H](NC(=O)C1CSSCC(NC(=O)C(Cc2ccccc2)NC(=O)CNC(=O)CNC(=O)[C@@H](CC(=O)O)NC(=O)C(CC(=O)O)NC(=O)[C@@H](CNC(=O)CC[C@H](C(=O)O)N2CCN(CC(=O)O)CCN(CC(=O)O)CCN(CC(=O)O)CC2)NC(=O)C(CN)NC(=O)c2ccc([Si](F)(C(C)(C)C)C(C)(C)C)cc2)C(=O)N[C@@H](Cc2ccc(O)cc2)C(=O)NC(Cc2c[nH]c3ccccc23)C(=O)N[C@@H](CCCCN)C(=O)N[C@@H]([C@@H](C)O)C(=O)N1)C(=O)O (some centres unmarked) [[Lu]20] | 18.76
